// note: IC50 values for Aurora kinase A (Homo sapiens, UniProt O14965) were reported in different studies

Sample records with IC50:
                                   compound      result
0  O=C(NCc1ccc(-c2cc(NC(=O)c3ccc(OCCN4CCOCC4)cc3)[nH]n2)cc1)Nc1ccc(Cl)cc1      > 1 µM
1  Cc1cn2c(-c3cn[nH]c3)cnc2c(Nc2cc(CN3CCN(C)CC3)ns2)n1  ≤ 0.004 µM
2  COc1nc(Nc2ccc(-c3nc4ccccc4s3)c(OC)c2)c2cc[nH]c2n1     > 10 µM
3  CN1CCC(n2nc(C(N)=O)c3c2-c2nc(NC4CCCC4)ncc2CC3)CC1     > 10 µM
4  CCc1cccc(CC)c1NC(=O)c1nn(C)c2c1CCc1cnc(Nc3ccccc3OC)nc1-2     3.17 µM

# lookup: Aurora kinase A (Homo sapiens, UniProt O14965) IC50, key = CCOC(=O)NCc1ccc(-c2cc(NC(=O)c3ccc(N4CCN(C)CC4)cc3)[nH]n2)cc1
# Sequence (O14965 whole entry): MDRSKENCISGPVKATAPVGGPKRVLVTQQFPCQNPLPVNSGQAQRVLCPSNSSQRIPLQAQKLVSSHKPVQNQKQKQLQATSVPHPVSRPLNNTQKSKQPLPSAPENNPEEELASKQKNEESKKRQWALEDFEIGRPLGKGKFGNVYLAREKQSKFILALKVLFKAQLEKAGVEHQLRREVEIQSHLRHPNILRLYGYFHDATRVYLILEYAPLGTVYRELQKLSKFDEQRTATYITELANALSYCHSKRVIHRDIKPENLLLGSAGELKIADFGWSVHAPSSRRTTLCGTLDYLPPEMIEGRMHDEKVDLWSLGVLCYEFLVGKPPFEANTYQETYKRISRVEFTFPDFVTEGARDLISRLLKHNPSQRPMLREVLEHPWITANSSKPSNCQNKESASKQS
> 1 µM

# lookup: Aurora kinase A (Homo sapiens, UniProt O14965) IC50, key = CCc1cc2c(cc1N1CCN(C3COC3)CC1)C(C)(C)c1[nH]c3cc(C#N)ccc3c1C2=O
> 50 µM

# lookup: Aurora kinase A (Homo sapiens, UniProt O14965) IC50, key = O=C(O)c1cccc2c1C(=O)NC2
> 100 µM

# lookup: Aurora kinase A (Homo sapiens, UniProt O14965) IC50, key = CCN(CC)C(=O)c1c(N)ncnc1Nc1ccc(OCc2ccccc2)c(Cl)c1
> 100 µM
